# experimental.system: T1, human Glypican 3 (GPC3) on GPC3-positive cells (human, UniProt P51654 25-554)
# T1 construct: whole, on cells; the methods say only 'GPC3-positive cells'; also called hGPC3
# T1 sequence (P51654 25-554 limits assumed): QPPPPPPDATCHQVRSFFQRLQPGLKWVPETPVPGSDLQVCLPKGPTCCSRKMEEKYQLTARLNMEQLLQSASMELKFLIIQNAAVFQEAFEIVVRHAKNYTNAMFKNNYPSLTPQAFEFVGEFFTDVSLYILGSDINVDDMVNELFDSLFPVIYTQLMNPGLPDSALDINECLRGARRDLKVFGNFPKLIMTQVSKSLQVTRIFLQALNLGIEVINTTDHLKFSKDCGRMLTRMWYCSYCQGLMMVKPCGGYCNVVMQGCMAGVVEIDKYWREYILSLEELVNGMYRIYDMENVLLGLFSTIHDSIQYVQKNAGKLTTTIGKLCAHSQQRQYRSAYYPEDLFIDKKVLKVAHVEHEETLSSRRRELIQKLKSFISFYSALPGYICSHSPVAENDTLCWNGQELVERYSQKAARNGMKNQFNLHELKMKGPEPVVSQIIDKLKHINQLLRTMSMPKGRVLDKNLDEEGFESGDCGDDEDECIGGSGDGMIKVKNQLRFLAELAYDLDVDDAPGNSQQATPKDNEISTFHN
# measurement.description: competition with AlexaFluor-488 labeled mGPC3-1 on GPC3-positive cells, flow cytometry
measured.metric: pEC50
Note on pEC50: it is the negative log10 of concentration, concentration in mol/L.

hGPC3-1 HDLB (antibody, V domains shown, Kabat positions) VH: EVQLVQSGAEVKKPGATVKISCKASGYTFTDYEMHWVKQAPGKGLEWIGGIDPETGGTAYNQKFKGKATLTADKSTDTAYMELSSLRSEDTAVYYCGRYYSFAYWGQGTLVTVSS VL: DVVMTQSPLSLPVTLGQPASISCRSSQSIVHSNGNTYLQWFQQRPGQSPRLLIYKVSNRFSGVPDRFSGSGSGTDFTLKISRVEAEDVGVYYCFQVSHVPYTFGQGTKLEIK	8.00
hGPC3-1 HBLC (antibody, V domains shown, Kabat positions) VH: EVQLVQSGAEVKKPGATVKISCKVSGYTFTDYEMHWVQQAPGKGLEWMGGIDPETGGTAYNQKFKGRVTLTADKSTDTAYMELSSLRSEDTAVYYCGRYYSFAYWGQGTLVTVSS VL: DVVMTQSPLSLPVTLGQPASISCRSSQSIVHSNGNTYLQWFQQRPGQSPKLLIYKVSNRFSGVPDRFSGSGSGTDFTLKISRVEAEDVGVYYCFQVSHVPYTFGQGTKLVMK	7.60
hGPC3-1 HDLC (antibody, V domains shown, Kabat positions) VH: EVQLVQSGAEVKKPGATVKISCKASGYTFTDYEMHWVKQAPGKGLEWIGGIDPETGGTAYNQKFKGKATLTADKSTDTAYMELSSLRSEDTAVYYCGRYYSFAYWGQGTLVTVSS VL: DVVMTQSPLSLPVTLGQPASISCRSSQSIVHSNGNTYLQWFQQRPGQSPKLLIYKVSNRFSGVPDRFSGSGSGTDFTLKISRVEAEDVGVYYCFQVSHVPYTFGQGTKLVMK	7.89
hGPC3-1 HBLA (antibody, V domains shown, Kabat positions) VH: EVQLVQSGAEVKKPGATVKISCKVSGYTFTDYEMHWVQQAPGKGLEWMGGIDPETGGTAYNQKFKGRVTLTADKSTDTAYMELSSLRSEDTAVYYCGRYYSFAYWGQGTLVTVSS VL: DVVMTQSPLSLPVTLGQPASISCRSSQSIVHSNGNTYLQWFQQRPGQSPRRLIYKVSNRFSGVPDRFSGSGSGTDFTLKISRVEAEDVGVYYCFQVSHVPYTFGQGTKLEIK	6.69
hGPC3-1 HALB (antibody, V domains shown, Kabat position) VH: QVQLVQSGAEVKKPGASVKVSCKASGYTFTDYEMHWVRQAPGQGLEWIGGIDPETGGTAYNQKFKGRATLTADTSTSTAYMELRSLRSDDTAVYYCARYYSFAYWGQGTLVTVSS VL: DVVMTQSPLSLPVTLGQPASISCRSSQSIVHSNGNTYLQWFQQRPGQSPRLLIYKVSNRFSGVPDRFSGSGSGTDFTLKISRVEAEDVGVYYCFQVSHVPYTFGQGTKLEIK	7.04

Retrieve pEC50 measured for hGPC3-1 HCLC (antibody, V domains shown, Kabat positions) VH: EVQLVQSGAEVKKPGATVKISCKASGYTFTDYEMHWVQQAPGKGLEWIGGIDPETGGTAYNQKFKGRATLTADKSTDTAYMELSSLRSEDTAVYYCGRYYSFAYWGQGTLVTVSS VL: DVVMTQSPLSLPVTLGQPASISCRSSQSIVHSNGNTYLQWFQQRPGQSPKLLIYKVSNRFSGVPDRFSGSGSGTDFTLKISRVEAEDVGVYYCFQVSHVPYTFGQGTKLVMK and print it.
7.72

Write down pEC50 measured for item hGPC3-1 HCLB (antibody, V domains shown, Kabat positions) VH: EVQLVQSGAEVKKPGATVKISCKASGYTFTDYEMHWVQQAPGKGLEWIGGIDPETGGTAYNQKFKGRATLTADKSTDTAYMELSSLRSEDTAVYYCGRYYSFAYWGQGTLVTVSS VL: DVVMTQSPLSLPVTLGQPASISCRSSQSIVHSNGNTYLQWFQQRPGQSPRLLIYKVSNRFSGVPDRFSGSGSGTDFTLKISRVEAEDVGVYYCFQVSHVPYTFGQGTKLEIK
7.74
